For each entry below, report its Percent Effect value.
- Test system: Plasmodium falciparum
- test: Calibr Malaria Delayed Death Assay SOP
- Assay type: functional, organism-based
- Set-up: scale not given: in the data most compounds retested in dose-response had high values
- test.parameters: concentration 4.99e-06 (unit not given; other assays of the set use mol/L)
In all, about 38,000 compounds went through this assay and about 1,200 (3.2%) showed an effect of 50% or more. The median lay at about -58%. Shown is part of a subset that was picked to be rich in strong results.
Answer by giving the amount and then stating its unit.

// input: 5 compounds below; output: Percent Effect for each
1. O=C(c1cccc(F)c1)N1CC[C@@H]2CN(c3ncccn3)CCO[C@@H]2C1
2. Cn1ccnc1CN1CC2(CCN(Cc3ccncc3)C2)C1
3. COc1ccc(C[C@H]2CN(C(=O)c3cscn3)CC[C@@H]2OC)cc1
4. O=C(C1=COCCO1)N1CC(Oc2nc3c(Cl)cccc3s2)C1
5. O=C1CC(c2ccc3c(c2)OCO3)c2c(n3ccsc3nc2=O)N1 (configuration not stated)

["-63.21%", "-45.53%", "-91.5%", "-117.3%", "-91.85%"]

Batch request: Percent Effect per item, same order as input.
1. Nc1nc2c(c(N3CCCC(c4nnc5ccccn45)C3)n1)CCNC2 (configuration not stated)
2. COc1ccc(NC(=O)C(c2cccc(F)c2)N2CCOCC2)cc1 (configuration not stated)
3. CCN(CC)Cc1ccc(C(=O)NC2CCc3cc(Cl)ccc32)o1 (configuration not stated)
4. COCCC(=O)N1CC2(CCN(Cc3ccncc3)CC2)C1
5. Cc1nc(CN2CCC23CCN(Cc2ccoc2)CC3)cs1
6. CCN1Cc2ccccc2CC2(CCN(CC(=O)O)CC2)C1=O.O=C(O)C(F)(F)F

1. 84.29%
2. -6.296%
3. 54.73%
4. -37.67%
5. 35.85%
6. -102.3%

I would be grateful if you could provide Percent Effect for each of the following entries.
1. c1ccn2c(C3CCCN(c4ncnc5c4CCNC5)C3)nnc2c1 (configuration not stated)
2. COCCn1ccnc1C1CCCN(c2ncnc3c2CCC3)C1 (configuration not stated)
3. CCN(CC)Cc1ccc(C(=O)NC2CCc3cc(Br)ccc32)o1 (configuration not stated)
4. O=C1CC(c2ccc(C(=O)O)cc2)c2c(sc3c2CCCC3)N1 (configuration not stated)

1. 74.94%
2. -114.3%
3. 46.2%
4. -5.696%

Your task in this section: give Percent Effect for each listed record.
1. O=C1CC(c2cccnc2)c2c(sc3c2CCCC3)N1 (configuration not stated)
2. Cc1ccc(CN2CCC3(CC2)CCN(Cc2ccoc2)CC3)cc1.O=C(O)C(F)(F)F.O=C(O)C(F)(F)F
3. O=C(O)C(F)(F)F.O=C(O)C(F)(F)F.O=C(O)C(F)(F)F.c1cc(CN2CCCC23CCCN(Cc2ccoc2)C3)ccn1 (configuration not stated)

28.11%
92.5%
-115.9%
